The following molecules are listed with their measured pEC50 values.
Biological target: UniProt:P43220
Sequence (P43220 24-463): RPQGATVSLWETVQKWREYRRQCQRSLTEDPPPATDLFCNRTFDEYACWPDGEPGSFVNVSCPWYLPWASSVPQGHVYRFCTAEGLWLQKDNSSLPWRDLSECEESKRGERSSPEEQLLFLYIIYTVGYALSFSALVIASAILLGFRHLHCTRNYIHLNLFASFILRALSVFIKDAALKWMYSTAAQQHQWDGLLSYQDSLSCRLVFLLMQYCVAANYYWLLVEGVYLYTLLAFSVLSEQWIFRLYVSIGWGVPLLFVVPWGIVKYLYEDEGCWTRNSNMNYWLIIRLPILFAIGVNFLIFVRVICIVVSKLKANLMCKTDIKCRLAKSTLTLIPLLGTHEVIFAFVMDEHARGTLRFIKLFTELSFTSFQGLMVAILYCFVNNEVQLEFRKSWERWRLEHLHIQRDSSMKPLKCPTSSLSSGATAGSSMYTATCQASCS
Sequence (P01275 100-127 partner limits assumed): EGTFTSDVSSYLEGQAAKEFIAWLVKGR
Experiment: EC20 GLP-1(9-36) PAM cAMP Assay: dose response of compound in the presence of fixed concentration of GLP-1(9-36)
Conditions: GLP-1R CRE-bla CHO-K1 cells, in presence of fixed concentration of GLP-1(9-36), 30 min at 37° C.
pEC50: −log10 of the molar value.

molecule: C[C@@H](NC(=O)[C@H](Cc1ccc(-c2ncc(C3=CC(C)(C)CC(C)(C)C3)cn2)cc1)NC(=O)c1ccc(C(C)(C)C)s1)C(=O)O
pEC50: > 6.30
//
molecule: CC[C@H]1CC[C@H](C2CCC(c3cnc(-c4ccc(C[C@H](NC(=O)c5ccc(C(C)(C)C)s5)C(=O)N5CC(C(=O)O)C5)cc4)nc3)CC2)CC1 (stereo partly drawn)
pEC50: 5.60 to 6.30
//
molecule: CC[C@H]1CC[C@H](C2CC=C(c3cnc(-c4ccc(C[C@H](NC(=O)c5ccc(C(C)(C)C)s5)C(=O)N5CCC[C@H]5C(=O)O)cc4)nc3)CC2)CC1 (stereo partly drawn)
pEC50: > 6.30
//
molecule: C[C@@H](NC(=O)[C@H](Cc1ccc(-c2ncc(C3=CC4CC[C@]3(C)C4(C)C)cn2)cc1)NC(=O)c1ccc(C(C)(C)C)s1)C(=O)O
pEC50: 5.30 to 5.60
//
molecule: CCCC1CCC(C2CC=C(c3cnc(-c4ccc(C[C@H](NC(=O)c5ccc(OC(C)C)cc5)C(=O)N5CC(C(=O)O)C5)cc4)nc3)CC2)CC1 (stereo partly drawn)
pEC50: > 6.30
//
molecule: CCCC1CCC(C2CCC(c3cnc(-c4ccc(C[C@H](NC(=O)c5ccc(C(C)C)cc5)C(=O)N5CC(C(=O)O)C5)cc4)nc3)CC2)CC1 (stereo partly drawn)
pEC50: 5.30 to 5.60
//
molecule: CC(C)(C)c1ccc(C(=O)N[C@@H](Cc2ccc(-c3ncc(C4CCC(C(C)(C)C)CC4)cn3)cc2)C(=O)N2CC(C(=O)O)C2)s1 (stereo partly drawn)
pEC50: 5.00 to 5.30
//
molecule: CCCC1CCC(C2CC=C(c3cnc(-c4ccc(C[C@@H](NC(=O)c5ccc(C(C)(C)C)s5)C(=O)N5CC(C(=O)O)C5)cc4)nc3)CC2)CC1 (stereo partly drawn) [Compound 124]
pEC50: 5.60 to 6.30
//
molecule: CCC(C)(C)c1ccc(C(=O)N[C@@H](Cc2ccc(-c3ncc(C4=CCC([C@H]5CC[C@H](CC)CC5)CC4)cn3)cc2)C(=O)N2CC(C(=O)O)C2)cc1 (stereo partly drawn)
pEC50: > 6.30
//
molecule: CC1(C)CCC(C2CC=C(c3cnc(-c4ccc(C[C@H](NC(=O)c5ccc(C(C)(C)C)s5)C(=O)N5CC(C(=O)O)C5)cc4)nc3)CC2)CC1 (stereo partly drawn)
pEC50: > 6.30

Challenge: Tell us which pEC50 value is on record for C[C@@H](NC(=O)[C@H](Cc1ccc(-c2ncc(C3=CCC(C)(C)CC3)cn2)cc1)NC(=O)c1ccc(C(C)(C)C)s1)C(=O)O
Response given: 5.60 to 6.30

Challenge: Tell us which pEC50 value is on record for CC(C)(C)c1ccc(C(=O)N[C@@H](Cc2ccc(-c3ncc(C4=CCC([C@H]5CC[C@H](C)CC5)CC4)cn3)cc2)C(=O)NCC2CCNC2)s1 (stereo partly drawn)
Response given: 5.60 to 6.30
